Biological target: HGFR (Homo sapiens)
Construct: purchased Upstate 14-526
Sequence (P08581 974-1390 limits assumed): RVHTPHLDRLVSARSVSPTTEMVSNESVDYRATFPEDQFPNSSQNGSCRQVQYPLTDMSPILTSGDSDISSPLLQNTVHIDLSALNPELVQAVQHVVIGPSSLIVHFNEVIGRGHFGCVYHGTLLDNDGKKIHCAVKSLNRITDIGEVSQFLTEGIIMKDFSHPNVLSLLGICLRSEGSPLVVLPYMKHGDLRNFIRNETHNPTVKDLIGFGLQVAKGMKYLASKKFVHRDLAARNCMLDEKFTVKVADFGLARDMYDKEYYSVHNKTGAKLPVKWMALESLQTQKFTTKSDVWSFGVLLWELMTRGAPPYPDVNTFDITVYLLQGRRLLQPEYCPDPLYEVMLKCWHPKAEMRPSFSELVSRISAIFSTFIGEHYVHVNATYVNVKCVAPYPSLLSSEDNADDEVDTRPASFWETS
Test: HGFR continuous-coupled spectrophotometric assay
Format: biochemical
Conditions: at 1 pM; Table 7, library procedure 42; read-out: % Inhibition (percent c-MET inhibition)
parameter: inhibition at 1 pM (%)
Write down the numeric answer in % and omit the unit.

For record CN(C)CCNC(=O)c1ccc(COc2cc(-c3ccc(C(=O)N4CCC(N5CCCC5)CC4)cc3)cnc2N)cc1 the listed inhibition at 1 pM is 9

For record Cc1cccnc1COc1cc(-c2ccc(C(=O)N3CCC(N4CCCC4)CC3)cc2)cnc1N the listed inhibition at 1 pM is 16

For record Nc1ncc(-c2ccc(C(=O)N3CCC(N4CCCC4)CC3)cc2)cc1OCc1cc(F)cc(C(F)(F)F)c1 the listed inhibition at 1 pM is 12

For record Nc1ncc(-c2ccc(C(=O)N3CCC(N4CCCC4)CC3)cc2)cc1OCc1cncc2ccccc12 the listed inhibition at 1 pM is 9

For record CC(C)Cc1noc(COc2cc(-c3ccc(C(=O)N4CCC(N5CCCC5)CC4)cc3)cnc2N)n1 the listed inhibition at 1 pM is 12

For record Nc1ncc(-c2ccc(C(=O)N3CCC(N4CCCC4)CC3)cc2)cc1OCc1cccc(OC(F)(F)F)c1 the listed inhibition at 1 pM is 13

For record Nc1ncc(-c2ccc(C(=O)N3CCC(N4CCCC4)CC3)cc2)cc1OCc1ccc(Cl)cc1Br the listed inhibition at 1 pM is 28

For record Nc1ncc(-c2ccc(C(=O)N3CCC(N4CCCC4)CC3)cc2)cc1OCc1cn2ccccc2n1 the listed inhibition at 1 pM is 11

For record Cn1nc(C2CC2)nc1COc1cc(-c2ccc(C(=O)N3CCC(N4CCCC4)CC3)cc2)cnc1N the listed inhibition at 1 pM is 5

---

Molecular target: Met kinase domain (GST fusion protein) (Homo sapiens, UniProt P08581)
Construct: Purified GST fusion protein containing the Met kinase domain
Sequence (P08581 1078-1345 limits assumed): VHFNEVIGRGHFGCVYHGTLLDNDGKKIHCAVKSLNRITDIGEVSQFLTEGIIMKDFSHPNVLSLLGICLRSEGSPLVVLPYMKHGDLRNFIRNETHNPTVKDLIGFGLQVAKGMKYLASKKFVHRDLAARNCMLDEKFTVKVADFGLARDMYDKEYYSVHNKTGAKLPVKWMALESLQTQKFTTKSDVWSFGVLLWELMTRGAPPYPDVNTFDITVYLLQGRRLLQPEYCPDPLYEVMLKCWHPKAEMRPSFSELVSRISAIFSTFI
Experiment: Met transphosphorylation assay (ELISA, poly(glu-tyr) substrate)
Format: biochemical
Details: read-out: Met IC50
parameter: IC50 (nM)
Write down the numeric answer in nM and omit the unit.

For record CC(Oc1nc(-c2cccc(C(=O)NCCN3CCOCC3)c2)cnc1N)c1c(Cl)ccc(F)c1Cl (stereo not shown) [II-134] the listed IC50 is 210

For record CC(=O)N1CCN(CCS(=O)(=O)Nc2cccc(-c3cnc(N)c(OCc4c(F)ccc(F)c4Cl)n3)c2)CC1 [II-23] the listed IC50 is 2790

For record Nc1ncc(-c2ccc(NS(=O)(=O)CCN3CCCCC3)cc2)nc1OCc1c(F)ccc(F)c1Cl [II-10] the listed IC50 is 1200

For record CN(C)CCS(=O)(=O)Nc1ccc(-c2cnc(N)c(OCc3c(F)ccc(F)c3Cl)n2)cc1 [II-16] the listed IC50 is 910

For record Nc1ncc(-c2ccc3[nH]cc(CN4CCCCC4)c3c2)nc1OCc1c(F)ccc(F)c1Cl [II-67] the listed IC50 is 510

For record Nc1ncc(-c2cccc(O)c2)cc1OCc1c(Cl)cccc1Cl [Example I-15] the listed IC50 is 1340

For record Nc1ncc(-c2ccc3[nH]cc(CN4CCOCC4)c3c2)cc1OCc1c(Cl)cccc1Cl [Example I-61] the listed IC50 is 1190

For record CN1CCN(C(=O)c2ccc(-c3cnc(N)c(OCc4c(F)ccc(F)c4Cl)n3)cc2)CC1 [II-46] the listed IC50 is 680

For record CC(Oc1nc(-c2cccc(C(=O)N3CCC(N4CCCC4)CC3)c2)cnc1N)c1c(Cl)ccc(F)c1Cl (stereo not shown) [II-92] the listed IC50 is 150

For record CC(Oc1nc(-c2ccc(C(=O)N3CCC[C@@H]3CN3CCCC3)cc2)cnc1N)c1c(F)ccc(F)c1Cl (stereo partly shown) [II-114] the listed IC50 is 130

For record CN(C)[C@H]1CCN(C(=O)c2ccc(-c3cnc(N)c(OCc4c(F)ccc(F)c4Cl)n3)cc2)C1 [II-39] the listed IC50 is 670

For record CN1CCN(C(=O)c2ccc(-c3cnc(N)c(OCc4cccc(F)c4C(F)(F)F)n3)cc2)CC1 [II-128] the listed IC50 is 150

For record Nc1ncc(-c2ccc(C(=O)N3CCC[C@@H]3CN3CCCC3)cc2)cc1OCc1ccccc1Br [Example I-115] the listed IC50 is 1750

For record CC(Oc1nc(-c2ccc(C(=O)NCCCN3CCCC3)cc2)cnc1N)c1c(Cl)cccc1Cl (stereo not shown) [II-167] the listed IC50 is 220

For record CC(=O)N1CCN(C(=O)c2ccc(-c3cnc(N)c(OCc4ccccc4C#N)c3)cc2)CC1 [Example I-167] the listed IC50 is 5700

For record CC(=O)N1CCN(CCNC(=O)c2cccc(-c3cnc(N)c(OCc4cccc(F)c4C(F)(F)F)n3)c2)CC1 [II-126] the listed IC50 is 650

---

Target: Met kinase domain (GST fusion protein) (Homo sapiens, UniProt P08581)
Construct: Purified GST fusion protein containing the Met kinase domain
Assay: Met transphosphorylation assay (ELISA, poly(glu-tyr) substrate)
Format: biochemical
Settings: read-out: Met IC50
For each record, write down the corresponding IC50.
Write down the numeric answer in nM and omit the unit.

For record Nc1ncc(-c2cccc(C(=O)O)c2)cc1OCc1c(Cl)cccc1Cl the listed IC50 is 16000

For record CC(=O)N1CCN(CCNC(=O)c2ccc(-c3cnc(N)c(OC(C)c4c(F)ccc(F)c4Cl)n3)cc2)CC1 (centres unmarked) the listed IC50 is 480

For record Nc1ncc(-c2ccc(C(=O)NCCCN3CCOCC3)cc2)cc1OCc1ccc(Cl)cc1Cl the listed IC50 is 2000

For record Nc1ncc(-c2cccc(NS(=O)(=O)CCN3CCCC3CO)c2)nc1OCc1c(F)ccc(F)c1Cl (centres unmarked) the listed IC50 is 1380

For record CN1CCC(NC(=O)c2ccc(-c3cnc(N)c(OCc4cccc(F)c4C(F)(F)F)n3)cc2)CC1 the listed IC50 is 81

For record CC(Oc1nc(-c2ccc(C(=O)N3CCC[C@@H]3CN3CCCC3)cc2)cnc1N)c1c(Cl)cccc1Cl (some centres unmarked) the listed IC50 is 160

For record Nc1ncc(-c2ccccc2)cc1OCc1c(F)ccc(F)c1Cl the listed IC50 is 640

For record CN(C)[C@@H]1CCN(C(=O)c2ccc(-c3cnc(N)c(OCc4c(Cl)cccc4Cl)c3)cc2)C1 the listed IC50 is 650

For record CC(Oc1nc(-c2ccc(C(=O)NCCN3CCOCC3)cc2)cnc1N)c1c(Cl)ccc(F)c1Cl (centres unmarked) the listed IC50 is 102

For record CC(Oc1nc(-c2cccc(C(=O)NCCN3CCCC3)c2)cnc1N)c1c(Cl)cccc1Cl (centres unmarked) the listed IC50 is 330

For record Nc1ncc(-c2ccc(OCC(=O)O)cc2)cc1OCc1c(F)cccc1F the listed IC50 is 14700

For record Nc1ncc(-c2ccc(O)cc2)cc1OCc1ccccc1Cl the listed IC50 is 13800

For record Cc1ccc(F)c(COc2cc(-c3ccccc3)cnc2N)c1F the listed IC50 is 12000

For record CC(Oc1nc(-c2ccc(NC(=O)NCCO)cc2)cnc1N)c1c(Cl)ccc(F)c1Cl (centres unmarked) the listed IC50 is 280

For record Nc1ncc(-c2ccc(C(=O)N3CCC[C@H]3CN3CCCC(F)C3)cc2)cc1OCc1c(Cl)cccc1Cl (some centres unmarked) the listed IC50 is 420

For record CC(=O)N[C@H]1CCN(Cc2c[nH]c3ccc(-c4cnc(N)c(OCc5c(F)ccc(F)c5Cl)n4)cc23)C1 the listed IC50 is 550

For record CC(Oc1nc(-c2ccc(NC(=O)N3CC[C@H](N)C3)cc2)cnc1N)c1c(F)ccc(F)c1Cl (some centres unmarked) the listed IC50 is 82

---

Target: Met kinase domain (GST fusion protein) (Homo sapiens, UniProt P08581)
Construct: Purified GST fusion protein containing the Met kinase domain
Test: Met transphosphorylation assay (ELISA, poly(glu-tyr) substrate);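 note: Cell-free ELISA with plate-bound poly(Glu:Tyr 4:1) phosphorylated by GST-fused Met kinase domain plus ATP and Mn2+, phosphotyrosine detected by anti-phosphotyrosine antibody with HRP and ABTS read-out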
Assay type: biochemical
Details: plain numbers in column Met IC50 (μM) of Table 2; read-out: Met IC50
We label by threshold. Values of IC50 strictly beneath 0.05 µM are condition met. Values of 0.05 µM and up are condition not met.

Does this compound meet the criterion IC50 < 0.05 µM? CC(Oc1cc(-c2cncc(C(=O)N3CCN(C)CC3)c2)cnc1N)c1c(Cl)ccc(F)c1Cl (centres unmarked)
condition met

Does this compound meet the criterion IC50 < 0.05 µM? CC(Oc1cc(-c2ccc(NC(=O)NC3CCN(C)CC3)cc2)cnc1N)c1c(Cl)ccc(F)c1Cl (centres unmarked)
condition met

Does this compound meet the criterion IC50 < 0.05 µM? CC(Oc1cc(-c2ccc(N)nc2)cnc1N)c1c(F)ccc(F)c1Cl (centres unmarked)
condition met

Does this compound meet the criterion IC50 < 0.05 µM? C[C@@H](Oc1cc(-c2ccc(NS(C)(=O)=O)cc2)cnc1N)c1c(F)ccc(F)c1Cl
condition not met

Does this compound meet the criterion IC50 < 0.05 µM? CC(Oc1cc(-c2cncnc2)cnc1N)c1c(F)ccc(F)c1Cl (centres unmarked)
condition not met

Does this compound meet the criterion IC50 < 0.05 µM? CC(Oc1cc(C#CCNC(=O)NCCN2CCCC2)cnc1N)c1c(Cl)ccc(F)c1Cl (centres unmarked)
condition not met

Does this compound meet the criterion IC50 < 0.05 µM? CC(Oc1cc(-c2ccc(NC(=O)NCCN3CCOCC3)cc2)cnc1N)c1c(Cl)ccc(F)c1Cl (centres unmarked)
condition not met

Does this compound meet the criterion IC50 < 0.05 µM? CC(Oc1cc(C#CCNC(=O)N2CCC[C@H]2CN2CCCC2)cnc1N)c1c(Cl)ccc(F)c1Cl (some centres unmarked)
condition not met
